# Test Name: activity coefficient (dimensionless); of the first substance listed, at infinite dilution; xn = mol fraction of the nth substance listed
# Experimental Context: 323.3 K; 101.3 kPa; Liquid; Chromatography; x1 = 0
Property: activity coefficient

C#CCCC [1-pentyne] + CCn1cc[n+](C)c1.N#C[B-](C#N)(C#N)C#N | 2.5

A: C=CCCCCCC [oct-1-ene] + CCn1cc[n+](C)c1.N#C[B-](C#N)(C#N)C#N
B: C#CCCCCCC [1-octyne] + CCn1cc[n+](C)c1.N#C[B-](C#N)(C#N)C#N
Problem: Of A and B , which carries the smaller reported activity coefficient figure? Pick one; state its label.
Result: B
(B: 9.11, A: 24)

* * *

# Test Name: activity coefficient (dimensionless); of the first substance listed, at infinite dilution; xn = mol fraction of the nth substance listed
# Experimental Context: 343.4 K; 101.3 kPa; Liquid; Chromatography; x1 = 0
Property: activity coefficient

C1CCCCC1 [cyclohexane] + CCn1cc[n+](C)c1.N#C[B-](C#N)(C#N)C#N | 8.64
CCCCC [pentane] + CCn1cc[n+](C)c1.N#C[B-](C#N)(C#N)C#N | 4.88

1: CCCCCCCCC [nonane] + CCn1cc[n+](C)c1.N#C[B-](C#N)(C#N)C#N
2: CC1CCCCC1 [methylcyclohexane] + CCn1cc[n+](C)c1.N#C[B-](C#N)(C#N)C#N
Problem: Could you kindly indicate whether 1 or 2 has the higher activity coefficient value? Which one? Tell me its label.
Result: 1
